Target Or Test System: human recombinant adrenergic α2B receptor (Homo sapiens, UniProt P18089)
Construct: expressed in transfected cells; host or cells: CHO-K1
Sequence (P18089 whole entry): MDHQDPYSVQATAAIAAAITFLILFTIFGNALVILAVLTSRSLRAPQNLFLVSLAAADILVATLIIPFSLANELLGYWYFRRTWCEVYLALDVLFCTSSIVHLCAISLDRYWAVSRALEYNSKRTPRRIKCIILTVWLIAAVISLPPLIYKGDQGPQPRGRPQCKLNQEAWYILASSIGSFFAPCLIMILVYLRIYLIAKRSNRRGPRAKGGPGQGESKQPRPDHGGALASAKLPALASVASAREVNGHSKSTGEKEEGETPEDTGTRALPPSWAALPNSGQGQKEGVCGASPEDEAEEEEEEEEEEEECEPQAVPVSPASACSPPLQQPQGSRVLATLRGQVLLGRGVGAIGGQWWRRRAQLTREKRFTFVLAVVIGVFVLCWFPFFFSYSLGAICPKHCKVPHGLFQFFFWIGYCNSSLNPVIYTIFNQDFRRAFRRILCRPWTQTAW
Protocol Details: Radioligand binding, adrenergic α2B ([3H]Rauwolscine)
Protocol Conditions: read-out: Percentage inhibition of ligand binding, Adrenergic α2B (0.03 μM), compound at 0.03 μM; [3H]Rauwolscine; repeat datapoints each shown
Listed next: entries and their corresponding inhibition at 0.03 µM.
Parameter Measured: inhibition at 0.03 µM (%)

INSERT INTO assay_data (compound, parameter_measured, units_symbol, value_observed) VALUES
  ('C/C(=C\n1c2c(c3cc(C)ccc31)CN(C)CC2)c1ccc(C)nc1 [compound 186]', 'inhibition at 0.03 µM', '%', 94),
  ('Cc1ccc2c(c1)c1c(n2CC(C)(O)c2cccnc2)CCN(C)CC1 (centres unmarked) [II-135a]', 'inhibition at 0.03 µM', '%', 34),
  ('Cc1ccc2c(c1)c1c(n2C(C)C(O)c2ccncc2)CCN(C)C1 (centres unmarked) [127b]', 'inhibition at 0.03 µM', '%', 1),
  ('Cc1ccc2c(c1)c1c(n2CC(CC(=O)C(C)(C)C)c2ccncc2)CCN(C)C1 (centres unmarked) [II-222]', 'inhibition at 0.03 µM', '%', 99),
  ('Cc1ccc(CCn2c3c(c4c(Cl)ccc(F)c42)CN(C)CC3)cn1 [II-248]', 'inhibition at 0.03 µM', '%', 5);
